Test system: 817829-284-R-J1-PDC multi-cell spheroid viability
Assay comment: Anticancer human tumor 817829-284-R-J1-PDC patient-derived colon adenocarcinoma cell line growth inhibition [PI3K]
Condition context: second compound 0.1 µM; first compound 0.01 µM; stronger effect = lower value
Text: Combinatorial screen of targeted agents with the PI3K inhibitors inavolisib, alpelisib, duvelisib, and copanlisib in multi-cell type tumor spheroids A high-throughput screen of multi-cell type tumor spheroids was designed to identify active combinations of targeted small molecules and PI3K pathway inhibitors. […] Compounds. […] If the clinical Cmax for an agent had not been determined, the highest concentration tested was 10 microM. […]
Answer each item with its documented viability, T/C.
Answers are plain numbers, in %.

Solved entries (count: 3):
| Compound | viability, T/C / % |
| --- | --- |
| CC(C)n1nc(-c2ccc3oc(N)nc3c2)c2c(N)ncnc21 + CC(Nc1ccc2c(c1)OCCn1cc(N3C(=O)OCC3C(F)F)nc1-2)C(N)=O | 32 |
| CCN1CCN(Cc2ccc(Nc3ncc(F)c(-c4cc(F)c5nc(C)n(C(C)C)c5c4)n3)nc2)CC1 + Cc1nc(NC(=O)N2CCCC2C(N)=O)sc1-c1ccnc(C(C)(C)C(F)(F)F)c1 | 70.8 |
| CCN1CCN(Cc2ccc(Nc3ncc(F)c(-c4cc(F)c5nc(C)n(C(C)C)c5c4)n3)nc2)CC1 + COc1c(OCCCN2CCOCC2)ccc2c3n(c(=NC(=O)c4cnc(N)nc4)nc12)CCN3 | 32 |

Required: viability, T/C, one value per compound below.
1. CC(=O)c1c(C)c2cnc(Nc3ccc(N4CCNCC4)cn3)nc2n(C2CCCC2)c1=O + COc1c(OCCCN2CCOCC2)ccc2c3n(c(=NC(=O)c4cnc(N)nc4)nc12)CCN3
2. CC(=O)c1c(C)c2cnc(Nc3ccc(N4CCNCC4)cn3)nc2n(C2CCCC2)c1=O + CC(Nc1ccc2c(c1)OCCn1cc(N3C(=O)OCC3C(F)F)nc1-2)C(N)=O

Result:
21.1
105

###

Tested on: 817829-284-R-J1-PDC multi-cell spheroid viability
Assay comment: Anticancer human tumor 817829-284-R-J1-PDC cell line growth inhibition [PI3K];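 also: spheroids exposed to agents for seven days before readout; percent of vehicle DMSO control viability which is 100%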
Condition context: second compound 0.00316 µM; first compound 0.0316 µM; stronger effect = lower value
Property: viability, T/C (%)
Give bare numbers, in %.

Solved entries (count: 2):
| Compound | viability, T/C (%) |
| --- | --- |
| CC(=O)c1c(C)c2cnc(Nc3ccc(N4CCNCC4)cn3)nc2n(C2CCCC2)c1=O + CC(Nc1ccc2c(c1)OCCn1cc(N3C(=O)OCC3C(F)F)nc1-2)C(N)=O | 142 |
| CNC(=O)c1ccc(N2C(=S)N(c3ccc(C#N)c(C(F)(F)F)c3)C(=O)C2(C)C)cc1F + CC(Nc1ccc2c(c1)OCCn1cc(N3C(=O)OCC3C(F)F)nc1-2)C(N)=O | 57.7 |

Required: viability, T/C, one value per compound below.
1. CCN1CCN(Cc2ccc(Nc3ncc(F)c(-c4cc(F)c5nc(C)n(C(C)C)c5c4)n3)nc2)CC1 + COc1c(OCCCN2CCOCC2)ccc2c3n(c(=NC(=O)c4cnc(N)nc4)nc12)CCN3
2. CC(=O)c1c(C)c2cnc(Nc3ccc(N4CCNCC4)cn3)nc2n(C2CCCC2)c1=O + COc1c(OCCCN2CCOCC2)ccc2c3n(c(=NC(=O)c4cnc(N)nc4)nc12)CCN3
3. CC(C)NCC(C(=O)N1CCN(c2ncnc3c2C(C)CC3O)CC1)c1ccc(Cl)cc1 (stereo unspecified) + COc1c(OCCCN2CCOCC2)ccc2c3n(c(=NC(=O)c4cnc(N)nc4)nc12)CCN3
4. CC(C)n1nc(-c2ccc3oc(N)nc3c2)c2c(N)ncnc21 + CC(Nc1ccc2c(c1)OCCn1cc(N3C(=O)OCC3C(F)F)nc1-2)C(N)=O

Result:
72.7
66.6
78.3
27.9

###

Test system: 817829-284-R-J1-PDC multi-cell spheroid viability
Assay comment: Anticancer human tumor 817829-284-R-J1-PDC cell line growth inhibition [PI3K];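 also: spheroids exposed to agents for seven days before readout; percent of vehicle DMSO control viability which is 100%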
Condition context: second compound 0.0316 µM; first compound 10 µM; stronger effect = lower value
Property: viability, T/C (%)
Answers are plain numbers, in %.

| Compound | Unit name | viability, T/C |
| --- | --- | --- |
| CC1(C)CCC(CN2CCN(c3ccc(C(=O)NS(=O)(=O)c4ccc(NCC5CCOCC5)c([N+](=O)[O-])c4)c(Oc4cnc5[nH]ccc5c4)c3)CC2)=C(c2ccc(Cl)cc2)C1 + CC(Nc1ccc2c(c1)OCCn1cc(N3C(=O)OCC3C(F)F)nc1-2)C(N)=O | % | 6.29 |
| CC(C)NCC(C(=O)N1CCN(c2ncnc3c2C(C)CC3O)CC1)c1ccc(Cl)cc1 (configuration not stated) + COc1c(OCCCN2CCOCC2)ccc2c3n(c(=NC(=O)c4cnc(N)nc4)nc12)CCN3 | % | 9.33 |
| C=CC(=O)N1CCN(c2nc(=O)n(-c3c(C)ccnc3C(C)C)c3nc(-c4c(O)cccc4F)c(F)cc23)C(C)C1 (configuration not stated) + CC(Nc1ccc2c(c1)OCCn1cc(N3C(=O)OCC3C(F)F)nc1-2)C(N)=O | % | 73.7 |

Required: viability, T/C, one value per compound below.
1. CC(C)NCC(C(=O)N1CCN(c2ncnc3c2C(C)CC3O)CC1)c1ccc(Cl)cc1 (configuration not stated) + Cc1nc(NC(=O)N2CCCC2C(N)=O)sc1-c1ccnc(C(C)(C)C(F)(F)F)c1
2. C=CC(=O)N1CCN(c2nc(=O)n(-c3c(C)ccnc3C(C)C)c3nc(-c4c(O)cccc4F)c(F)cc23)C(C)C1 (configuration not stated) + Cc1nc(NC(=O)N2CCCC2C(N)=O)sc1-c1ccnc(C(C)(C)C(F)(F)F)c1
3. CCCS(=O)(=O)Nc1ccc(F)c(C(=O)c2c[nH]c3ncc(-c4ccc(Cl)cc4)cc23)c1F + COc1c(OCCCN2CCOCC2)ccc2c3n(c(=NC(=O)c4cnc(N)nc4)nc12)CCN3
4. CC(Cn1ccc(-c2ccc(C#N)c(Cl)c2)n1)NC(=O)c1cc(C(C)O)[nH]n1 (configuration not stated) + Cc1nc(NC(=O)N2CCCC2C(N)=O)sc1-c1ccnc(C(C)(C)C(F)(F)F)c1

Result:
[13.5, 54.7, 10.2, 67.4]

###

System: 817829-284-R-J1-PDC multi-cell spheroid viability
Assay comment: Anticancer human tumor 817829-284-R-J1-PDC cell line growth inhibition [PI3K];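 also: spheroids exposed to agents for seven days before readout; percent of vehicle DMSO control viability which is 100%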
Condition context: second compound 0.00316 µM; first compound 3.16 µM; stronger effect = lower value
Kindly note that classification relies on viability, T/C with these boundaries: A: < 60%; B: ≥ 60% and < 80%; C: ≥ 80%

Check out these entries, answers already filled in.
| Molecule | Qualitative label |
| --- | --- |
| CC1(C)CCC(Nc2ncc(C(F)(F)F)c(-c3c[nH]c4c(P(C)(C)=O)c(C#N)ccc34)n2)CN1 (configuration not stated) + CC(Nc1ccc2c(c1)OCCn1cc(N3C(=O)OCC3C(F)F)nc1-2)C(N)=O | A |
| CC1(C)CCC(CN2CCN(c3ccc(C(=O)NS(=O)(=O)c4ccc(NCC5CCOCC5)c([N+](=O)[O-])c4)c(Oc4cnc5[nH]ccc5c4)c3)CC2)=C(c2ccc(Cl)cc2)C1 + COc1c(OCCCN2CCOCC2)ccc2c3n(c(=NC(=O)c4cnc(N)nc4)nc12)CCN3 | C |

Problem: Lab note: which band did Cn1ncc(Cl)c1-c1cc(C(=O)NC(CN)Cc2cccc(F)c2)sc1Cl (configuration not stated) + COc1c(OCCCN2CCOCC2)ccc2c3n(c(=NC(=O)c4cnc(N)nc4)nc12)CCN3 land in?
Result: A

Problem: Lab note: which band did Cn1ncc(Cl)c1-c1cc(C(=O)NC(CN)Cc2cccc(F)c2)sc1Cl (configuration not stated) + CC(Nc1ccc2c(c1)OCCn1cc(N3C(=O)OCC3C(F)F)nc1-2)C(N)=O land in?
Result: A

###

Test system: 817829-284-R-J1-PDC multi-cell spheroid viability
Assay comment: Anticancer human tumor 817829-284-R-J1-PDC cell line growth inhibition [PI3K];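 also: spheroids exposed to agents for seven days before readout; percent of vehicle DMSO control viability which is 100%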
Condition context: second compound 3.16 µM; first compound 10 µM; stronger effect = lower value
Source text: Combinatorial screen of targeted agents with the PI3K inhibitors inavolisib, alpelisib, duvelisib, and copanlisib in multi-cell type tumor spheroids A high-throughput screen of multi-cell type tumor spheroids was designed to identify active combinations of targeted small molecules and PI3K pathway inhibitors. […] Compounds. […] If the clinical Cmax for an agent had not been determined, the highest concentration tested was 10 microM. […]
Strictly below 8% in viability, T/C: met. Otherwise: not met.

Check out these entries, answers already filled in.
| Molecule | Qualitative label |
| --- | --- |
| CC1(C)CCC(CN2CCN(c3ccc(C(=O)NS(=O)(=O)c4ccc(NCC5CCOCC5)c([N+](=O)[O-])c4)c(Oc4cnc5[nH]ccc5c4)c3)CC2)=C(c2ccc(Cl)cc2)C1 + Cc1nc(NC(=O)N2CCCC2C(N)=O)sc1-c1ccnc(C(C)(C)C(F)(F)F)c1 | met |
| CNC(=O)c1ccc(N2C(=S)N(c3ccc(C#N)c(C(F)(F)F)c3)C(=O)C2(C)C)cc1F + Cc1nc(NC(=O)N2CCCC2C(N)=O)sc1-c1ccnc(C(C)(C)C(F)(F)F)c1 | not met |
| CC1(C)CCC(Nc2ncc(C(F)(F)F)c(-c3c[nH]c4c(P(C)(C)=O)c(C#N)ccc34)n2)CN1 (stereo not given) + Cc1nc(NC(=O)N2CCCC2C(N)=O)sc1-c1ccnc(C(C)(C)C(F)(F)F)c1 | met |
| CCCS(=O)(=O)Nc1ccc(F)c(C(=O)c2c[nH]c3ncc(-c4ccc(Cl)cc4)cc23)c1F + CC(Nc1ncnc2nc[nH]c12)c1cc2cccc(Cl)c2c(=O)n1-c1ccccc1 | not met |
| C[C@@H](NC(=O)c1ncnc(N)c1Cl)c1ncc(C(=O)Nc2cc(C(F)(F)F)c(Cl)cn2)s1 + Cc1nc(NC(=O)N2CCCC2C(N)=O)sc1-c1ccnc(C(C)(C)C(F)(F)F)c1 | not met |

Problem: Is it true that viability, T/C reported for CC(C)NCC(C(=O)N1CCN(c2ncnc3c2C(C)CC3O)CC1)c1ccc(Cl)cc1 (stereo not given) + Cc1nc(NC(=O)N2CCCC2C(N)=O)sc1-c1ccnc(C(C)(C)C(F)(F)F)c1 is less than 8%?
Result: met

Problem: Is it true that viability, T/C reported for Cn1nccc1Nc1nccc(-c2ccn(C(CO)c3ccc(Cl)c(F)c3)c(=O)c2)n1 (stereo not given) + Cc1nc(NC(=O)N2CCCC2C(N)=O)sc1-c1ccnc(C(C)(C)C(F)(F)F)c1 is less than 8%?
Result: not met

Problem: Is it true that viability, T/C reported for CC(Cn1ccc(-c2ccc(C#N)c(Cl)c2)n1)NC(=O)c1cc(C(C)O)[nH]n1 (stereo not given) + CC(Nc1ncnc2nc[nH]c12)c1cc2cccc(Cl)c2c(=O)n1-c1ccccc1 is less than 8%?
Result: not met

Problem: Is it true that viability, T/C reported for CC(Cn1ccc(-c2ccc(C#N)c(Cl)c2)n1)NC(=O)c1cc(C(C)O)[nH]n1 (stereo not given) + Cc1nc(NC(=O)N2CCCC2C(N)=O)sc1-c1ccnc(C(C)(C)C(F)(F)F)c1 is less than 8%?
Result: not met

Problem: Is it true that viability, T/C reported for C=CC(=O)N1CCN(c2nc(=O)n(-c3c(C)ccnc3C(C)C)c3nc(-c4c(O)cccc4F)c(F)cc23)C(C)C1 (stereo not given) + Cc1nc(NC(=O)N2CCCC2C(N)=O)sc1-c1ccnc(C(C)(C)C(F)(F)F)c1 is less than 8%?
Result: not met
